system: E6AP mRNA in HCT116 cells; test: siRNA AD-8724 delivery into HCT116 cells, inhibition of E6AP mRNA expression by bDNA assay; assay type: cell-based, human; settings: AD-8724, siRNA/peptide conc. 25 nM/250 nM
Measured remaining E6AP mRNA (in % of mock) of individual entries
Remember to put the unit after the number in your answer.

Below are worked cases with known answers.
* RLFRALLRLLRSLWRLLRRA [AP-4] | 96 ± 24%
* RLFRALLRLLRSLWRLLRRAHHHHH [AP-28] | 105 ± 13%
* HLFRALLRLLRHLWRLLLRA [AP-10] | 98 ± 8%

Please give the measured remaining E6AP mRNA (in % of mock) for this sequence: HLFRALLRLLRHLWRLLLRAHHHHH [AP-29] 58 ± 8%

----------
system: eGFP-mRNA; test: Influence of peptide/siRNA ratio on siRNA activity in HCT116 cells; assay type: cell-based; details: 250 nM siRNA, peptide/siRNA ratio 10:1
Recorded Remaining eGFP-mRNA in % of mock-transfected controls by entry

Examples with answers:
• HLFRALLRLLRHLWRLLHRA [AP-11] = 30 ± 8%
• RLFPALLRLLRRLWRLLLRA [AP-6] = 36 ± 8%
• HLFRALLRLLRHLWRLLLRA [AP-10] = 24 ± 4%
• GLFRALLRLLRRLWRLLLRA [AP-3] = 32 ± 4%
• HLFRHLLRLLRRLWHLLHRA [AP-14] = 41 ± 12%
• GLFRALLRLLRSLWRLLRRA [AP-2] = 35 ± 15%

# lookup: Remaining eGFP-mRNA in % of mock-transfected controls of HLFRALLRLLRSLWRLLHRA [AP-9] 31 ± 3%

# iterate: RLFRALLRLLRSLWRLLRRA [AP-4] 18 ± 6%

Param item: HLFRHLLRLLRHLWRHLLRA [AP-15] 26 + 2%
